Item-by-item account of IC50
tgt: eqBChE (Equus caballus)
Construct: butylcholinesterase was from equine serum (eqBChE); purchased Sigma-Aldrich; host or cells: equine serum
experiment-description: biochemical
Assay type: biochemical
recorded-conditions: mean ± SD, n = 3
Protocol: The enzymes and reagents for biochemical assays were obtained from Sigma-Aldrich. Kinetic assays of cholinesterase activity were performed using Ellman’s method and analyzed as previously described. […] IC50 values were calculated by the interpolation of dose-response curves using GraphPad Prism 6 (Graphpad Software, San Diego, California, USA).
Expressed in µM, but write only the number.

Oc1cc(O)cc(-c2cc3cc(Cl)ccc3o2)c1 : 36.6
Oc1cc(-c2cc3cccc(Cl)c3o2)cc(O)c1O : 25.7
Cc1cccc2cc(-c3cc(O)c(O)c(O)c3)oc12 : 19.8
Oc1cc(-c2cc3cccc(Br)c3o2)cc(O)c1O : 18.4

If you can, please state the reported IC50 value of `Oc1cc(-c2cc3cc(Br)ccc3o2)cc(O)c1O` . 27.6

Next compound: `Cc1ccc2oc(-c3cc(O)c(O)c(O)c3)cc2c1` 16.1

How about `Cc1cccc2cc(-c3cc(O)cc(O)c3)oc12` ? 10

And `Oc1cc(O)cc(-c2cc3cccc(Cl)c3o2)c1` ? 6.23

Would you mind doing `Oc1cc(O)cc(-c2cc3cc(Br)ccc3o2)c1` as well? 30

Field entry: `Oc1cc(-c2cc3cc(Cl)ccc3o2)cc(O)c1O` 38.2

Now consider `Oc1cc(O)cc(-c2cc3cccc(Br)c3o2)c1` . 3.57

Please give the result for `Cc1ccc2oc(-c3cc(O)cc(O)c3)cc2c1` too. 12.5

Queued: `Oc1cc(O)cc(-c2cc3ccccc3o2)c1` 25.2

====

As an illustration, consider measured IC50 for molecules on EeAChE (Electrophorus electricus).
Sequence (O42275 24-633): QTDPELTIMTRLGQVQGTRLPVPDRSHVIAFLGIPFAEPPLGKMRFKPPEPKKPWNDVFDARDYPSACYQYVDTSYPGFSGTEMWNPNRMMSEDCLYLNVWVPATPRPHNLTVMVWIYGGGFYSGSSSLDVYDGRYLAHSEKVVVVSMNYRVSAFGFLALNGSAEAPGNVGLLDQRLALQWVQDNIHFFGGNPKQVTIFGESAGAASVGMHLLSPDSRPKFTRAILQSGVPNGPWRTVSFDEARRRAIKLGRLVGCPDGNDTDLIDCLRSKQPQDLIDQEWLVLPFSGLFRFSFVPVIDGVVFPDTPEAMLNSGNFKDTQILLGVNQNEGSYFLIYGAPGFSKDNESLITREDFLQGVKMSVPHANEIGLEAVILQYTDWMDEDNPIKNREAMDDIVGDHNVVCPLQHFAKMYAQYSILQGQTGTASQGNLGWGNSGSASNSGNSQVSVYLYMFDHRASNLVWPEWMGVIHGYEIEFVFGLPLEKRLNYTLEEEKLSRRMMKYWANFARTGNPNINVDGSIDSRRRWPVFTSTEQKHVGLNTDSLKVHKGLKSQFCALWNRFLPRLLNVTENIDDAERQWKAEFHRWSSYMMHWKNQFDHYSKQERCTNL

Guide cases for IC50, answers given:
Cc1cccc2cc(-c3cc(O)c(O)c(O)c3)oc12 : 66 µM
Oc1cc(O)cc(-c2cc3cc(Cl)ccc3o2)c1 : 80 µM
Oc1cc(-c2cc3ccccc3o2)cc(O)c1O : > 100 µM

Okay, next one:
Form field: reported IC50 of `Cc1cccc2cc(-c3cc(O)cc(O)c3)oc12` > 100 µM

====

tgt: eqBChE (Equus caballus, UniProt P81908)
Construct: butylcholinesterase was from equine serum (eqBChE); purchased Sigma-Aldrich; host or cells: equine serum
Sequence (P81908 whole entry): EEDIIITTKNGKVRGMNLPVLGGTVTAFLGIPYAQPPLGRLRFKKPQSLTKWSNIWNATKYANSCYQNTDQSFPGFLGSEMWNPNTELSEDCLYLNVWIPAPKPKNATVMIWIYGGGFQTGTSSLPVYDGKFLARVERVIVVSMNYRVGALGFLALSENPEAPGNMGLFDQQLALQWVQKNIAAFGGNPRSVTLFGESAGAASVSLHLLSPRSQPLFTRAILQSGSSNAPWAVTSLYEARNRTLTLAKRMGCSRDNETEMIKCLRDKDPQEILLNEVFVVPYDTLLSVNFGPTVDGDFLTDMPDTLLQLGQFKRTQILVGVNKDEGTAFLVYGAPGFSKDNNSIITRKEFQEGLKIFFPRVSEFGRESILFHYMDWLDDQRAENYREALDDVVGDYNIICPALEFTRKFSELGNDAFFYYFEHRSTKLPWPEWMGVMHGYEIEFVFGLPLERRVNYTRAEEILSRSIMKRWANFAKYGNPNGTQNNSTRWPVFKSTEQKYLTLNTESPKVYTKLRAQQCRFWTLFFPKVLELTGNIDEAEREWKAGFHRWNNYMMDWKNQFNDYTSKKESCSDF
experiment-description: biochemical
Format: biochemical
recorded-conditions: IC50 for AChE/IC50 for BChE
// label = 1 (yes) if Selectivity to eqBChE is not less than 2, otherwise 0 (no)

Cc1cccc2cc(-c3cc(O)cc(O)c3)oc12 : 1 (yes)
Oc1cc(-c2cc3cccc(Cl)c3o2)cc(O)c1O : 0 (no)
Cc1ccc2oc(-c3cc(O)cc(O)c3)cc2c1 : 1 (yes)
Cc1cccc2cc(-c3cc(O)c(O)c(O)c3)oc12 : 1 (yes)
Cc1ccc2oc(-c3cc(O)c(O)c(O)c3)cc2c1 : 1 (yes)
Oc1cc(-c2cc3cc(Br)ccc3o2)cc(O)c1O : 0 (no)

Is it the case that `Oc1cc(-c2cc3cc(Cl)ccc3o2)cc(O)c1O` has Selectivity to eqBChE reaching or exceeding 2? 0 (no)

Okay, and `Oc1cc(O)cc(-c2cc3cccc(Cl)c3o2)c1` ? 1 (yes)

`Oc1cc(O)cc(-c2cc3cc(Br)ccc3o2)c1` ? 1 (yes)

Also check `Oc1cc(O)cc(-c2cc3cc(Cl)ccc3o2)c1` 1 (yes)

# repeat for `Oc1cc(O)cc(-c2cc3ccccc3o2)c1` 1 (yes)

Now try `Oc1cc(O)cc(-c2cc3cccc(Br)c3o2)c1` . 1 (yes)

====

As an illustration, consider measured pIC50 for molecules on EeAChE (Electrophorus electricus).
When answering, recall that pIC50 equals minus log10 of the concentration in mol/L, and write that number alone.

Examples with their reported pIC50 follow.
Oc1cc(-c2cc3cccc(Cl)c3o2)cc(O)c1O [Compound 22] : 4.30
Oc1cc(-c2cc3cc(Cl)ccc3o2)cc(O)c1O [Compound 23] : 4.52
Oc1cc(-c2cc3cccc(Br)c3o2)cc(O)c1O [Compound 24] : 4.43

Form field - read-out: pIC50; system: EeAChE (Electrophorus electricus); submitted item: Oc1cc(O)cc(-c2cc3cccc(Br)c3o2)c1 [Compound 17] 4.00

Same thing, different molecule: Oc1cc(O)cc(-c2cc3cc(Br)ccc3o2)c1 [Compound 18] 4.18

Can you check Oc1cc(-c2cc3cc(Br)ccc3o2)cc(O)c1O [Compound 25] next? 4.60

====

tgt: EeAChE (Electrophorus electricus)
Construct: purchased Sigma-Aldrich
experiment-description: biochemical
Type: biochemical
recorded-conditions: mean ± SD, n = 3
pIC50: −log10 of the molar value.
# pIC50 per record follows

Solved entries:
Oc1cc(O)cc(-c2cc3ccccc3o2)c1 [Compound 21] : < 4.00
Cc1ccc2oc(-c3cc(O)cc(O)c3)cc2c1 [Compound 20] : < 4.00
Oc1cc(O)cc(-c2cc3cccc(Cl)c3o2)c1 [Compound 15] : ≤ 4.00

Alright, here's another compound for you.
For EeAChE (Electrophorus electricus), provide pIC50 of Cc1ccc2oc(-c3cc(O)c(O)c(O)c3)cc2c1 [Compound 27] please. ≤ 4.00
